- Target Or Test System: CRAF (Homo sapiens, UniProt P04049)
- Sequence (P04049 whole entry): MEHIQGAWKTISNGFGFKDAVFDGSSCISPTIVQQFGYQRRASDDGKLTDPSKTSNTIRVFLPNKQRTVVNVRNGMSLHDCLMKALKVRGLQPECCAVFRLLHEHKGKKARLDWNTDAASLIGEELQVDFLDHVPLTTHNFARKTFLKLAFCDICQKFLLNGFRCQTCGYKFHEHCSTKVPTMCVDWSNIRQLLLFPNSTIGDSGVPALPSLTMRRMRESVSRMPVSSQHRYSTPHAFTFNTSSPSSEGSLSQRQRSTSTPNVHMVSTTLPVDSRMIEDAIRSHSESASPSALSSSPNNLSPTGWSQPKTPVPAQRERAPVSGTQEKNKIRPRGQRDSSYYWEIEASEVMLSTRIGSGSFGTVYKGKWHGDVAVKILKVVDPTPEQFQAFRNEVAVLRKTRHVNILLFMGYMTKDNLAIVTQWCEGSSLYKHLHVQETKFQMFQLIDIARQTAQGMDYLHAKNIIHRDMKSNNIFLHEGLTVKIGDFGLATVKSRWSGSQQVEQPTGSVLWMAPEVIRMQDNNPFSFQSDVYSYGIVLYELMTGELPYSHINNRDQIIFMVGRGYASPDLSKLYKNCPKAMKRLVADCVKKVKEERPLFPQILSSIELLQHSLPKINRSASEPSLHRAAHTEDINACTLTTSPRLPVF
- Assay Method Text: CRAF kinase activity assay (ADP-Glo)
- Assay type: biochemical
- Protocol Conditions: Table 3
pIC50: −log10 of the molar value.
Parameter: pIC50

Recorded pIC50, per entry:
Substance Smiles | pIC50
Cc1cccc(S(=O)(=O)Nc2ccc(F)c(Nc3ncnc4cnc(-n5cnc6ccccc65)nc34)c2F)c1Cl | < 7.30
COc1ccc(S(=O)(=O)Nc2ccc(F)c(Nc3ncnc4cnc(-n5nnc6ccccc65)nc34)c2F)c(C)c1F | 7.30 to 8.00
Cc1c(Cl)cccc1S(=O)(=O)Nc1ccc(F)c(Nc2ncnc3cnc(-n4nnc5ccccc54)nc23)c1F | > 8.00
CCC1(O)CCN(c2cccc3c2ncn3-c2ncc3ncnc(Nc4c(F)ccc(NS(=O)(=O)c5cccc(Cl)c5C(F)(F)F)c4F)c3n2)CC1 | > 8.00
CC1(O)CCN(c2cccc3c2ncn3-c2ncc3ncnc(Nc4c(F)ccc(NS(=O)(=O)c5cccc(Cl)c5Cl)c4F)c3n2)CC1 | > 8.00

Dear colleague, I am looking for the recorded pIC50 of the following molecule: COc1ccc(S(=O)(=O)Nc2ccc(F)c(Nc3ncnc4cnc(-n5cnc6c(N)cccc65)nc34)c2F)c(C)c1Cl 7.30 to 8.00

Quick one: pIC50 for COc1ccc(S(=O)(=O)Nc2ccc(F)c(Nc3ncnc4cnc(-n5cnc6c(N)cccc65)nc34)c2F)c(C)c1F ? > 8.00

Quick check: pIC50 of CCc1ccccc1S(=O)(=O)Nc1ccc(F)c(Nc2ncnc3cnc(-n4cnc5c(N6CCC(O)(CC)CC6)cccc54)nc23)c1F ? 7.30 to 8.00

Requested field: pIC50. Item: O=S(=O)(Nc1ccc(F)c(Nc2ncnc3cnc(-n4cc(S(=O)(=O)C5CCOCC5)c5ccccc54)nc23)c1F)c1cccc(Cl)c1Cl > 8.00

// query pIC50 value for entry O=S(=O)(Nc1ccc(F)c(Nc2ncnc3cnc(-n4nnc5c(N6CCN(CCO)CC6)cccc54)nc23)c1F)c1cccc(Cl)c1Cl > 8.00

Given Nc1cccc2c1nnn2-c1ncc2ncnc(Nc3c(F)ccc(NS(=O)(=O)c4cccc(Cl)c4Cl)c3F)c2n1 , state its recorded pIC50. > 8.00

Which measured pIC50 value corresponds to Cc1c(F)cccc1S(=O)(=O)Nc1ccc(F)c(Nc2ncnc3cnc(-n4nnc5c(N)cccc54)nc23)c1F ? > 8.00

Give its pIC50 value. Item: O=S(=O)(Nc1ccc(F)c(Nc2ncnc3cnc(-n4nnc5c(N6CCC7(CCCO7)CC6)cccc54)nc23)c1F)c1cccc(Cl)c1Cl 7.30 to 8.00
